Biological target: MPXV VP39 2′-O-RNA methyltransferase (Monkeypox virus)
Sequence (A0A7H0DN74 whole entry, looked up): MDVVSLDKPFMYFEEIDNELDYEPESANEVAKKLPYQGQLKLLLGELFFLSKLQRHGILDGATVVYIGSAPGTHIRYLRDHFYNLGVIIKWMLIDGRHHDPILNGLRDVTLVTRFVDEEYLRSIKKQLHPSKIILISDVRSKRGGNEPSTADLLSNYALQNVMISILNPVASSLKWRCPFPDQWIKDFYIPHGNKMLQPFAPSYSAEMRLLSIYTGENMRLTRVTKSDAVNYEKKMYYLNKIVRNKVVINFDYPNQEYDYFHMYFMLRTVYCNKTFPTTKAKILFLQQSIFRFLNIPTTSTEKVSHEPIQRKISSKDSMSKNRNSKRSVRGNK
Assay: biochemical
Conditions: IC50, individual fit of data set 1
Hi! Just check whether IC50 is below 100 nM. Below gives Y, equal or above gives N.

>>> class_name("C=Cc1cn([C@@H]2O[C@H](CSCC[C@H](N)C(=O)O)[C@@H](O)[C@H]2O)c2ncnc(N)c12")
"N"

Given the entry Nc1ncnc2c1c(C#Cc1nc3ccccc3[nH]1)cn2[C@@H]1O[C@H](CSCC[C@H](N)C(=O)O)[C@@H](O)[C@H]1O , would its reported IC50 be below 100 nM?
N

Given the entry Nc1ncnc2c1c(I)cn2[C@@H]1O[C@H](CSCC[C@H](N)C(=O)O)[C@@H](O)[C@H]1O , would its reported IC50 be below 100 nM?
N

Given the entry Nc1ncnc2c1c(C#Cc1cccc3ccccc13)cn2[C@@H]1O[C@H](CSCC[C@H](N)C(=O)O)[C@@H](O)[C@H]1O , would its reported IC50 be below 100 nM?
Y

Given the entry CCc1cn([C@@H]2O[C@H](CSCC[C@H](N)C(=O)O)[C@@H](O)[C@H]2O)c2ncnc(N)c12 , would its reported IC50 be below 100 nM?
Y

Given the entry Nc1ncnc2c1c(C#Cc1ccccc1)cn2[C@@H]1O[C@H](CSCC[C@H](N)C(=O)O)[C@@H](O)[C@H]1O , would its reported IC50 be below 100 nM?
N

Given the entry Nc1ncnc2c1ncn2[C@@H]1O[C@H](C[C@@H](N)CC[C@H](N)C(=O)O)[C@@H](O)[C@H]1O [sinefungin, reference compound] , would its reported IC50 be below 100 nM?
N

Given the entry Nc1ncnc2c1c(C#Cc1ccc3ccccc3c1)cn2[C@@H]1O[C@H](CSCC[C@H](N)C(=O)O)[C@@H](O)[C@H]1O , would its reported IC50 be below 100 nM?
Y
